This listing pairs compounds with measured GI50.
# System: KM12
# Assay: NCI tumour cell line growth inhibition, 48 h
Calls of active or inactive are those of the source. No stated cut-off is given here; in the data, active = GI50 up to about 1.1 µM and inactive = higher.

Compound	Assay system	Test value
O=C(O)CN1CCN(CC(=O)N2CCN(C(=O)OCc3ccccc3)CC2)CCN(CC(=O)O)CCN(CC(=O)N2CCN(C(=O)OCc3ccccc3)CC2)CC1	KM12	> 100 µM (inactive)

query: // returns reported GI50 for input COc1ccc(-c2cc(O)c3ccc(C)nc3n2)cc1
result: > 100 µM (inactive)

query: // returns reported GI50 for input CC(C)[C@](O)(C(=O)OCC1=CCN2CC[C@@H](O)[C@@H]12)[C@H](C)O
result: > 375 µM (inactive)

query: // returns reported GI50 for input O=C1C(NCCO)=C(N2CC2)C(=O)C(NCCO)=C1N1CC1
result: 74.5 µM (inactive)

query: // returns reported GI50 for input NC(CCC(=O)NC(CSCC1C(=O)Nc2ccccc21)C(=O)NCC(=O)O)C(=O)O (stereo not given)
result: 9.82 µM (inactive)

====

# System: OVCAR-8
# Assay: NCI tumour cell line growth inhibition, 48 h
Active and inactive are the calls of the source. Cut-off read from the data, not from the text of the source: active = GI50 up to about 1.1 µM and inactive = higher.
// classify into 1 for active, -1 for inactive

Please review the following examples before continuing.
Compound	Class
CC(C(O)c1ccccc1)N(C)/N=N/c1nc2c([nH]1)c(=O)n(C)c(=O)n2C (stereo unspecified)	-1
CCOC(=O)/C(C#N)=C/N(CC)/N=C/c1ccccc1	-1
Cc1ccc2nc3[nH]nc(N)c3nc2c1	-1

query: Tell me the assay call for COc1cccc(CCNc2c(C#N)c3nc4ccccc4n3c3ccccc23)c1 please.
result: 1

query: Tell me the assay call for COC(=O)C1(C(=O)OC)N=C(C)OC1C(C)C (stereo unspecified) please.
result: -1

query: Tell me the assay call for Cn1ccnc1Sc1ccc(/C=N/c2ccc3nc(SCC(=O)NC4CCCCC4)sc3c2)cc1[N+](=O)[O-] please.
result: -1

query: Tell me the assay call for COc1ccc(CN(Cc2ccc(OC)cc2)C(=O)CC2(O)C=CCC2)cc1 (stereo unspecified) please.
result: -1

query: Tell me the assay call for O=[N+]([O-])c1ccc(/C=N/Nc2nc3ccccc3[nH]2)o1 please.
result: -1

query: Tell me the assay call for CCCCS/C(=C(/C#N)C(N)=O)c1cc2c([nH]1)CCCC2 please.
result: -1

query: Tell me the assay call for Fc1ccc2c(c1)nc1n2C(c2c(F)cccc2F)SC1 (stereo unspecified) please.
result: -1

query: Tell me the assay call for O=[N+]([O-])c1ccc(Cl)cc1N/N=C/c1ccnc2ccccc12 please.
result: -1

query: Tell me the assay call for COC(=O)C(CC(=O)Nc1ccc(C)cc1)C(=O)C(=O)Nc1ccccc1C(C)C (stereo unspecified) please.
result: -1

====

# Test system: COLO 205
# Assay: NCI tumour cell line growth inhibition, 48 h
Active and inactive are the calls of the source. Cut-off read from the data, not from the text of the source: active = GI50 up to about 1.1 µM and inactive = higher.
// classify into active, inactive

Please review the following examples before continuing.
Molecule	Class
CCN(c1ccccc1)[C@H]1C(=O)N(c2ccc([N+](=O)[O-])cc2)[C@H]1c1ccc(OC)cc1	inactive
O=C(O)CN1CCN(CC(=O)N2CCN(C(=O)OCc3ccccc3)CC2)CCN(CC(=O)O)CCN(CC(=O)N2CCN(C(=O)OCc3ccccc3)CC2)CC1	inactive

query: Tell me the assay call for CSc1nc2c(c(N3CCOCC3)n1)C(O)n1c(nc3ccccc31)S2 (stereo unspecified) please.
result: active

query: Tell me the assay call for O=S(=O)(c1ccccc1)N1CCCC(c2ccccc2)CC1 (stereo unspecified) please.
result: inactive

query: Tell me the assay call for CCOc1ccc(NCc2cc(OC)c(OC)c(OC)c2)cc1 please.
result: active

query: Tell me the assay call for COc1ccc(-n2c(=O)c3nc[nH]c3n(-c3ccc(OC)cc3)c2=S)cc1 please.
result: inactive

query: Tell me the assay call for Cc1ccnc(NS(=O)(=O)c2ccc(NC3=CC(=O)C(=O)c4ccccc43)cc2)n1 please.
result: inactive

query: Tell me the assay call for CC1=NN=C(N)NC1=CC(Sc1ccc(Cl)cc1)c1c(O)ccc2ccccc12 (stereo unspecified) please.
result: inactive

query: Tell me the assay call for c1ccc2c3c(ccc2c1)-c1[nH]ncc1CCO3 please.
result: inactive

query: Tell me the assay call for CSC1=N[C@H](c2ccccc2)CS1 please.
result: inactive

query: Tell me the assay call for Cn1cnc([N+](=O)[O-])c1Sc1nccn1-c1ccccc1 please.
result: inactive
